- system name: recombinant protein Wee-1 (Homo sapiens (Human))
- Sequence (P30291 whole entry): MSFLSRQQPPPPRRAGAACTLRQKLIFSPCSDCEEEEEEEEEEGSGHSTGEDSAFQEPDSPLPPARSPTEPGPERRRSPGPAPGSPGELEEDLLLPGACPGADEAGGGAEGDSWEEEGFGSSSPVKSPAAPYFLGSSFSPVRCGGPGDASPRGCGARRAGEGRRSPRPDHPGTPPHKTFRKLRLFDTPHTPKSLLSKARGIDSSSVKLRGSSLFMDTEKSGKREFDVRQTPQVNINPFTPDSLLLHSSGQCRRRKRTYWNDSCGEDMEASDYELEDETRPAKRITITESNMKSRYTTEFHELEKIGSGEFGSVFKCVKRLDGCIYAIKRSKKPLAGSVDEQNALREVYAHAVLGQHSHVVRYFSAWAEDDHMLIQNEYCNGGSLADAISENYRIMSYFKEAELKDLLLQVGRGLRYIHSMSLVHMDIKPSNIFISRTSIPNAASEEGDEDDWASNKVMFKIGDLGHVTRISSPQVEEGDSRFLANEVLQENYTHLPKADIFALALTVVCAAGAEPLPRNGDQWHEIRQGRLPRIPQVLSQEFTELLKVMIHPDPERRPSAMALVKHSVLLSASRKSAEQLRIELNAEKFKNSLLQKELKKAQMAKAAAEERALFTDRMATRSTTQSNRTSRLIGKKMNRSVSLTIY
- experimental details: HTRF assay for inhibiting enzymatic activity of recombinant protein Wee-1
- measurement conditions: compounds up to 200 nM, read-out: (IC50) Inhibitory activity against recombinant protein Wee-1
reported metric: IC50

> print(dat)
                                 smiles.str  reported.result
1  CN1CCc2ccc(Nc3ncc(C#N)c(-n4cnc5c(N=S(C)(C)=O)cccc54)n3)cc2C1      10 to 50 nM
2  COc1ccc(Nc2nc(Nc3ccc4c(c3)CN(C)CC4)ncc2C#N)nc1N=S(C)(C)=O          ≤ 10 nM
3  CN1CCc2ccc(Nc3ncc(C#N)c(Nc4cccc(N=S(C)(C)=O)n4)n3)cc2C1          ≤ 10 nM
4  CN1CCc2c(CCCN)cc(Nc3ncc(C#N)c(Nc4cccc(N=S(C)(C)=O)n4)n3)cc2C1          ≤ 10 nM

----------
The following compounds are listed with their measured pIC50 values.
- Tested on: MIA PaCa-2 cells
- experimental details: In-vitro anti-proliferative activity in combination with gemcitabine on MIA PaCa-2 cells
- Format: cell-based
- measurement conditions: 72 h, with 20 nM gemcitabine, read-out: in combination with 20 nM GMC IC50
pIC50: −log10 of the molar value.
reported metric: pIC50

> print(dat)
                                  smiles.str  censoring.sign  reported.result
 1  CN1CCc2c(cc(Nc3ncc(C#N)c(Nc4cccc(N=S(C)(C)=O)n4)n3)cc2CN2CCOCC2)C1               =             6.95
 2  CN1CCc2ccc(Nc3ncc(-c4ccc(F)nc4)c(Nc4cccc(N=S(C)(C)=O)n4)n3)cc2C1               <             7.00
 3  CN1CCc2c(cc(Nc3ncc(C#N)c(Nc4cccc(N=S(C)(C)=O)n4)n3)cc2-c2ccccc2)C1               =             8.19
 4  Cc1cc(Nc2ncc(C#N)c(Nc3cccc(N=S(C)(C)=O)n3)n2)cc(C2CC2)c1N1CCN(C)CC1               =             8.22
 5  COCCCc1cc(Nc2ncc(C#N)c(Nc3cccc(N=S(C)(C)=O)n3)n2)cc2c1CCN(C)C2               =             8.60
 6  CN1CCN(c2ccc(Nc3ncc(C#N)c(Nc4cccc(N=S(C)(C)=O)n4)n3)cc2C2CC2)CC1               =             8.27
 7  Cc1cc(Nc2ncc(C#N)c(Nc3cccc(N=S(C)(C)=O)n3)n2)ccc1N1CCN(C)CC1               =             8.46
 8  CN1CCc2ccc(Nc3ncc(-c4cn[nH]c4)c(Nc4cccc(N=S(C)(C)=O)n4)n3)cc2C1               <             7.00
 9  CN1CCc2ccc(Nc3ncc(C#N)c(Nc4cccc(N=S(C)(C)=O)n4)n3)cc2C1               =             8.34
10  CN1CCc2c(cc(Nc3ncc(C#N)c(Nc4cccc(N=S(C)(C)=O)n4)n3)cc2N2CCCCC2)C1               =             8.03
11  CN1CCc2c(cc(Nc3ncc(C#N)c(Nc4cccc(N=S(C)(C)=O)n4)n3)cc2C2(C)CC2)C1               =             8.36
12  CN1CCc2ccc(Nc3ncc(C(=O)N(C)C)c(Nc4cccc(N=S(C)(C)=O)n4)n3)cc2C1               <             7.00
